test system: HL-60(TB) leukemia; assay: NCI-60 one-dose screen, 48 h; conditions: 10 µM unless noted
This is part of a sample that, as a whole, favours compounds with a hit. Of some 83,000 tested, about 20% had one in any assay. Calls of active or inactive are those of the source. How the source made its calls: active means growth percent below 10; inactive means the rest.
Classes used: active, inactive

[
  {
    "COMPOUND": "Cc1ccc(C2=NN(c3nc(-c4cc5ccccc5oc4=O)cs3)C(c3ccc(C)cc3)C2)cc1 (stereo not given)",
    "CLASSIFICATION": "inactive"
  },
  {
    "COMPOUND": "COc1cc(C2CC(c3ccccc3)=Nc3c(N)nc(N)nc3N2)ccc1Oc1nc(Nc2ccc(F)cc2)nc(N(C)C)n1 (stereo not given)",
    "CLASSIFICATION": "inactive"
  },
  {
    "COMPOUND": "CN1CCN(C(=O)Oc2cc3c(c4ccccc24)[C@H](CCl)CN3C(=O)c2cc3cc(OCCCN4CCC4)ccc3[nH]2)[C@H]2CSSC[C@H]21",
    "CLASSIFICATION": "active"
  },
  {
    "COMPOUND": "O=C(/C=C/c1ccc(-c2ccccc2)cc1)c1nc2ccccc2n1Cc1ccc(F)cc1",
    "CLASSIFICATION": "inactive"
  },
  {
    "COMPOUND": "COc1ccc2c3nc4cc(C)c(C)cc4nc3n(CCN(C)C)c2c1",
    "CLASSIFICATION": "active"
  },
  {
    "COMPOUND": "NS(=O)(=O)c1ccc(N2N=C(c3ccc(NC(=O)Nc4ccccc4)cc3)CC2c2ccc(Br)cc2)cc1 (stereo not given)",
    "CLASSIFICATION": "active"
  },
  {
    "COMPOUND": "Oc1ccc(/C=C2\\CCCc3cc4ccc(O)cc4[o+]c32)c(O)c1",
    "CLASSIFICATION": "inactive"
  },
  {
    "COMPOUND": "O=c1oc2ccccc2cc1-c1csc(N=Nc2c(O)[nH]c3ccc(Cl)cc23)n1",
    "CLASSIFICATION": "inactive"
  },
  {
    "COMPOUND": "COc1ccc(/C=C/c2nc3ccccc3c(=O)n2CC(=O)Nc2ccc(OC)cc2)cc1",
    "CLASSIFICATION": "inactive"
  },
  {
    "COMPOUND": "O=[N+]([O-])c1cccc(-c2nnc3c(/C=C/c4ccc(F)cc4)nc4ccccc4n23)c1",
    "CLASSIFICATION": "inactive"
  },
  {
    "COMPOUND": "Cc1ccc2nc(SCc3ccccc3F)n(-c3ccccc3)c(=O)c2c1",
    "CLASSIFICATION": "inactive"
  },
  {
    "COMPOUND": "[2H]C([2H])([2H])Oc1ccc2ncc(C#Cc3cncc(C(=O)Nc4ccc(CN5CCN(C)CC5)c(C(F)(F)F)c4)c3)n2n1",
    "CLASSIFICATION": "active"
  },
  {
    "COMPOUND": "O=C(NNC(=S)NC(=O)c1ccccc1)c1ccc(OCc2nc3ccc(Cl)cc3[nH]2)cc1",
    "CLASSIFICATION": "active"
  },
  {
    "COMPOUND": "COc1ccc(Cn2cc(C#N)c(N)c2C(C)=O)c(OC)c1",
    "CLASSIFICATION": "inactive"
  },
  {
    "COMPOUND": "O=C(NCCCCCCCCCC[P+](c1ccccc1)(c1ccccc1)c1ccccc1)c1ccc(-n2nc(-c3ccccc3O)nc2-c2ccccc2O)cc1",
    "CLASSIFICATION": "active"
  },
  {
    "COMPOUND": "Cn1cc(-c2cc(N)n3nc(-c4cn(C)c5ccccc45)cc3n2)c2cc(F)ccc21",
    "CLASSIFICATION": "active"
  },
  {
    "COMPOUND": "COc1ccc2c(c1)C(Sc1ccc(Cl)cc1)c1c(nc(N)c(C#N)c1N)O2 (stereo not given)",
    "CLASSIFICATION": "inactive"
  },
  {
    "COMPOUND": "CC12OOC(C)(OO1)C2CCC(=O)NCCNc1ccnc2cc(Cl)ccc12 (stereo not given)",
    "CLASSIFICATION": "inactive"
  },
  {
    "COMPOUND": "N#Cc1ccc(C(=O)Nn2c(N)cc3ccccc3c2=O)cc1",
    "CLASSIFICATION": "inactive"
  },
  {
    "COMPOUND": "CCCCCCCCCCCCCCCCCC(=O)Nc1ccc(OC)cc1",
    "CLASSIFICATION": "inactive"
  },
  {
    "COMPOUND": "CCS(=O)(=O)N1CCCC(C(=O)Nc2nc3ccc(NC(=O)c4ccc(F)c(OC)c4F)cc3s2)C1 (stereo not given)",
    "CLASSIFICATION": "inactive"
  },
  {
    "COMPOUND": "Cc1ccc(-c2nc(Nc3ccccc3C(=O)O)c3ccccc3n2)cc1",
    "CLASSIFICATION": "inactive"
  },
  {
    "COMPOUND": "COc1ccc(-c2nc(-c3ccccc3)c(-c3ccccc3)n2-c2ccc(S(=O)(=O)Nc3ncccn3)cc2)cc1OC",
    "CLASSIFICATION": "inactive"
  },
  {
    "COMPOUND": "COc1cc(C2CC(c3ccc(C)cc3)=Nc3c(N)nc(N)nc3N2)ccc1Oc1nc(Nc2ccc(F)cc2)nc(N(C)C)n1 (stereo not given)",
    "CLASSIFICATION": "inactive"
  },
  {
    "COMPOUND": "COc1c(F)ccc(C(=O)Nc2ccc3nc(NC(=O)C4CCCN(S(=O)(=O)c5ccc(C#N)cc5)C4)sc3c2)c1F (stereo not given)",
    "CLASSIFICATION": "inactive"
  },
  {
    "COMPOUND": "O=C(N/N=C/c1ccc(Cl)cc1)c1ccc(OCc2nc3ccc(Cl)cc3[nH]2)cc1",
    "CLASSIFICATION": "inactive"
  },
  {
    "COMPOUND": "COc1ccc2c(c1)c(-c1cc(N)n3nc(-c4c[nH]c5ccccc45)cc3n1)cn2C",
    "CLASSIFICATION": "active"
  },
  {
    "COMPOUND": "O=C(N/C(=C1/OCCN1Cc1ccccc1)[P+](c1ccccc1)(c1ccccc1)c1ccccc1)c1ccccc1",
    "CLASSIFICATION": "active"
  },
  {
    "COMPOUND": "NS(=O)(=O)c1cccc(Nc2nc(SCC(=O)c3ccc(F)cc3)nc3ccccc23)c1",
    "CLASSIFICATION": "active"
  },
  {
    "COMPOUND": "O=C(c1ccc(O)cc1)C1[C@H](c2ccccc2Br)[C@@H](c2ccccc2)NC12C(=O)Nc1ccc(Cl)cc12 (stereo not given in full)",
    "CLASSIFICATION": "active"
  },
  {
    "COMPOUND": "Fc1ccc(F)c(CNc2nc(SCCN3CCOCC3)nc3c2cnn3CC(Cl)c2ccc(Br)cc2)c1 (stereo not given)",
    "CLASSIFICATION": "active"
  },
  {
    "COMPOUND": "CCOP(=O)(OCC)C(NC(C)=O)C(=O)SCCN (stereo not given)",
    "CLASSIFICATION": "inactive"
  },
  {
    "COMPOUND": "CCOP(=O)(OCCCl)c1nc(-c2ccc(C)cc2)oc1NCc1ccccc1 (stereo not given)",
    "CLASSIFICATION": "inactive"
  },
  {
    "COMPOUND": "Cc1ccc([C@H]2C(C(=O)c3ccc(Cl)cc3)C3(N[C@@H]2c2ccccc2)C(=O)Nc2ccc(Cl)cc23)cc1 (stereo not given in full)",
    "CLASSIFICATION": "inactive"
  },
  {
    "COMPOUND": "COC(=O)c1cc(C(=O)C(F)(F)F)n2c3ccccc3c3ccccc3c12",
    "CLASSIFICATION": "inactive"
  }
]
